- Experiment Description: Oral bioavailability in rat at 2 mg/kg
- Assay type: ADME, organism-based
- Test Parameters: in vivo
Readout Type: bioavailability (%)
The figure you give is taken to be in %; do not add the unit.

Use these answered entries as a reference point.
INSERT INTO assay_data (smiles_entry, readout_type, readout_units, assay_value) VALUES
  ('C[C@H](c1ccc(Cl)cc1Cl)n1nc(C(N)=O)c2ncc(N3CC([C@H]4CCCN(CCO)C4)C3)nc21', 'bioavailability', '%', 0),
  ('CC(=O)NCCN1CCC[C@H](C2CN(c3cnc4c(C)nn([C@H](C)c5ccc(Cl)cc5Cl)c4n3)C2)C1', 'bioavailability', '%', 13),
  ('C[C@H](c1ccc(Cl)cc1Cl)n1nc(C#N)c2ncc(N3CC([C@H]4CCCN(CCO)C4)C3)nc21', 'bioavailability', '%', 49),
  ('Cc1nn([C@H](C)c2ccc(Cl)cc2Cl)c2nc(N3CC([C@H]4CCCN(CCNS(C)(=O)=O)C4)C3)cnc12', 'bioavailability', '%', 11);

Query compound follows.
Summary for this compound, Cc1nn([C@H](C)c2ccc(Cl)cc2Cl)c2nc(N3CC([C@H]4CCCN(CCO)C4)C3)cnc12 : bioavailability is 61

----------
- Experiment Description: AUC (0 to last) in mouse at 2 mg/kg, po
- Type: ADME, organism-based
- Design: dose 2 mg/kg, time 0 - last, route oral
- Test Parameters: in vivo
Readout Type: AUC(0-t) (ng·h/mL)
# number only, unit ng·h/mL dropped from output

Summary for this compound, C[C@H](c1ccc(Cl)cc1Cl)n1nc(C#N)c2ncc(N3CC([C@H]4CCCN(CCO)C4)C3)nc21 : AUC(0-t) is 751

----------
- Experiment Description: Oral bioavailability in mouse at 2 mg/kg
- Type: ADME, organism-based
- Test Parameters: in vivo
Readout Type: bioavailability
Report the figure along with its unit, number first.

For this compound ( C[C@H](c1ccc(Cl)cc1Cl)n1nc(C#N)c2ncc(N3CC([C@H]4CCCN(CCO)C4)C3)nc21 ), measured bioavailability is 29%

----------
- Experiment Description: Clearance in rat at 0.5 mg/kg, iv
- Type: ADME, organism-based
- Test Parameters: in vivo
Listing: log10(clearance) of selected molecules
Each number you see is log10 of clearance, and the unit inside the log is mL/min/kg.

INSERT INTO assay_data (smiles_entry, assay_value) VALUES
  ('Cc1nn([C@H](C)c2ccc(Cl)cc2Cl)c2nc(N3CC([C@H]4CCCN(CCO)C4)C3)cnc12', 1.51),
  ('C[C@H](c1ccc(Cl)cc1Cl)n1nc(C(N)=O)c2ncc(N3CC([C@H]4CCCN(CCO)C4)C3)nc21', 2.28),
  ('Cc1nn([C@H](C)c2ccc(Cl)cc2Cl)c2nc(N3CC([C@H]4CCCN(CCNS(C)(=O)=O)C4)C3)cnc12', 1.62);

Item: CC(=O)NCCN1CCC[C@H](C2CN(c3cnc4c(C)nn([C@H](C)c5ccc(Cl)cc5Cl)c4n3)C2)C1 | log10(clearance): 1.04

# molecule C[C@H](c1ccc(Cl)cc1Cl)n1nc(C#N)c2ncc(N3CC([C@H]4CCCN(CCO)C4)C3)nc21 ; its log10(clearance) = 1.68

The reported measurements were obtained from ChEMBL document CHEMBL4627411.
